# Tested on: Human papillomavirus type 1a E7 protein (residues 1-88)
# experiment_description: HPV1a E7 small-molecule binders, primary screen, biochemical, small-molecule microarray, residues 1-88, 635 nm (AID 1129)
# test_settings: small-molecule microarray binding, fluorescence 635 nm; higher = more signal
Decision: composite z-score >= 0.5 yields Yes, all other cases yield No.

Known results for molecules:
CCN1C(=O)[C@H]2[C@H]3[C@H](O)[C@H](O)CC(=NO[C@H](C)c4cn([C@@H]5COC[C@H]5O)nn4)[C@@H]3CC[C@H]2C1=O
No
CCN1C(=O)[C@H]2[C@H]3[C@H](O)[C@H](O)CC(=NOCC=C(C)CCC=C(C)C)[C@@H]3CC[C@H]2C1=O
No
CCCNC(=O)OC[C@H]1O[C@H](CCON=C[C@@H](NS(=O)(=O)c2ccc(C)cc2)[C@H](C)C=CCC(=O)OC)C=C[C@@H]1Oc1ccc(OC)cc1
No
CC(CCC(=O)OC[C@H]1O[C@H](C#Cc2ccccc2)C=C[C@@H]1Oc1ccc(C)cc1)=NOC(C)CN1CCCc2nc(C)c(C)cc21 (stereo not given in full)
Yes
COC(=O)CC=C[C@@H](C)[C@@H](C=NOC(C)CN1CCCCc2nc(C)c(C)cc21)NS(=O)(=O)c1ccc(C)cc1 (stereo not given in full)
No

Can CO[C@@H]1COC(=O)[C@H](CCSC)NC(=O)CC=C[C@@H](C)COC(=O)[C@@H]2CCCN2C(=O)CC=C[C@H]1C be said to have composite z-score at or above 0.5?
No

Can O=C1C=C[C@@H](O)[C@@H]2[C@@H]3C(=O)N(c4cccc(Oc5ccccc5)c4)C(=O)[C@@H]3CC[C@@H]12 be said to have composite z-score at or above 0.5?
Yes

Can CCOC(=O)[C@H](CC(C)C)NC(=O)CCC1CC(OC(=O)NCc2ccc3c(c2)OCO3)CC2(CCCC(COC(=O)NCCc3ccccc3OC)O2)O1 (stereo not given in full) be said to have composite z-score at or above 0.5?
Yes

Can COC(=O)CC=C[C@@H](C)[C@@H](C=NOC(C)CN1CCCCc2nc(C)c(C)cc21)OC (stereo not given in full) be said to have composite z-score at or above 0.5?
Yes

Can CC(C)[C@@H](OCc1ccccc1)[C@H](C)CON=C1[C@H]2CCn3c(=O)n(-c4ccccc4)c(=O)n3[C@H]2[C@H](O)[C@@H]2O[C@H]12 be said to have composite z-score at or above 0.5?
No

Can O=C1[C@H]2[C@H]3[C@H](O)[C@H](O)CC(=NOC[C@@H](O)COCc4ccco4)[C@@H]3CC[C@H]2C(=O)N1C1CCCCC1 be said to have composite z-score at or above 0.5?
No

Can C[C@H]1CC[C@@H](C(=O)O)N[C@@H]1c1cccc(N2CCCC2=O)c1 be said to have composite z-score at or above 0.5?
Yes

----------
# System: XIP peptide (Xip251-270) binding
# experiment_description: small-molecule binders of XIP peptide, primary screen, biochemical, small-molecule microarray, fluorescence 635/667 nm, 0.1 µg/mL protein (AID 1182)
# test_settings: fluorescent protein binding, 635 nm, higher = more signal, called active from +8 up or from −8 down
Parameter composite z-score: see the listing below.
// keep it numeric: no unit symbol after the value

Worked set:
CCOC(=O)[C@H](Cc1ccccc1)NC(=O)CCC1CC(OC(=O)NCc2cccc3ccccc23)CC2(CCCC(COC(=O)NCCc3ccccc3OC)O2)O1 (stereo not given in full)
0.248
C[C@H]1CC[C@H]2C(=O)OC(COc3ccc(C(C)(C)C)cc3)CN2[C@@H]1c1ccc(Br)cc1 (stereo not given in full)
0.0819
CCN1C(C)=C(C(=O)OC)[C@@H](c2ccccc2)N2C(=O)[C@](O)(C(=O)OC)CC(C(C)=O)=C12
0.181

Field request: composite z-score | item: COc1ccc(OC[C@@H]2CC3[C@@H](c4ccc(Br)cc4)[C@H](C)CC[C@H]3C(=O)O2)cc1 (stereo not given in full)
-0.0755

Field request: composite z-score | item: CC(CCN1CCCCc2nc(C)c(C)cc21)=NOC[C@@H](O)[C@H]1O[C@@H]2OC(C)(C)O[C@@H]2[C@H]1O
-0.398

Field request: composite z-score | item: CO[C@@H]1C=CCC(=O)N[C@@H](C)C(=O)OC[C@@H](NS(=O)(=O)c2ccc(C)cc2)[C@H](C)C=CCC(=O)OC[C@H]1C
-0.778

----------
Parameter composite z-score: see the listing below.
# Tested on: Noggin (protein binding on small-molecule microarray)
# experiment_description: Noggin binders on small-molecule microarray, primary screen, biochemical, 635/667 nm fluorescence (AID 1095);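 further: score merges 667 nm feature fluorescence with signal to noise over triplicate slides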
# test_settings: 635 nm fluorescence, higher = more signal
// keep it numeric: no unit symbol after the value

Worked set:
COC(=O)CC=C[C@@H](C)[C@@H](C=NOC(C)CN1CCCc2nc(C)c(C)cc21)NS(=O)(=O)c1ccc(C)cc1 (some centres undefined)
0.629
CCCNC(=O)OC[C@H]1O[C@H](CCON=C[C@@H](C)[C@H](OCc2ccccc2)C(C)C)C=C[C@@H]1Oc1ccc(OC)cc1
-0.0593
CCN1C(=O)[C@H]2[C@H]3[C@H](O)[C@H](O)CC(=NOCC=C(C)CCC=C(C)C)[C@@H]3CC[C@H]2C1=O
0.962

Attention now turns to another entry.
Request body: readout composite z-score, system Noggin (protein binding on small-molecule microarray), query COC(=O)CC=C[C@@H](C)[C@@H](C=NOC(C)CN1CCCCc2nc(C)c(C)cc21)NS(=O)(=O)c1ccc(C)cc1 (some centres undefined) . Return the value.
0.52

----------
# experiment_description: mitochondrial membrane potential change in A549 cells, profiling panel, cell-based, JC-1 fluorescence, basal, 24 h, 100 nL (AID 1138);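 further: A549 lung adenocarcinoma cells under basal conditions with no added stimulus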
# test_settings: higher = more signal
Decision: z-score >= 0.3 yields 1 (yes), all other cases yield 0 (no).

C[C@@H]1CC[C@H]2C(=O)O[C@@H](CN=[N+]=[N-])CN2[C@H]1c1ccc(Br)cc1
0 (no)
O=C1[C@H]2CCn3c(=O)n(Cc4cc5c(cc4Cl)OCO5)c(=O)n3[C@H]2[C@H](O)[C@@H]2O[C@H]12
0 (no)
CCOC(=O)[C@H](Cc1ccccc1)NC(=O)CCC1CC(OC(=O)NCCc2ccc(F)cc2)CC2(CCCC(COC(=O)NCc3cccc(C(F)(F)F)c3)O2)O1 (stereo partly drawn)
1 (yes)

Can CO[C@H]1COC(=O)CCC[C@H](C)[C@@H](OC)COC(=O)CC=C[C@@H]1C be said to have z-score at or above 0.3?
0 (no)

Can CCOC(=O)[C@H](Cc1ccccc1)NC(=O)CCC1CC(OC(=O)NCc2cccc3ccccc23)CC2(CCCC(COC(=O)NCCc3ccc(Cl)cc3)O2)O1 (stereo partly drawn) be said to have z-score at or above 0.3?
0 (no)

Can C[C@@H](c1ccccc1)N1C(=O)[C@H]2[C@H]3[C@H](O)[C@H](O)CC(=NOCc4ccccc4)[C@@H]3CC[C@H]2C1=O be said to have z-score at or above 0.3?
0 (no)

Can CC(C)=NOC[C@@H](O)[C@H]1O[C@@H]2OC(C)(C)O[C@@H]2[C@H]1O be said to have z-score at or above 0.3?
0 (no)

Can CC(CCN1CCCc2nc(C)c(C)cc21)=NO[C@H](C)c1cn([C@H](CO)Cc2ccccc2)nn1 be said to have z-score at or above 0.3?
0 (no)

----------
Parameter z-score: see the listing below.
# experiment_description: RPMI8226 myeloma cell viability, profiling panel, resazurin fluorescence, basal, 24 h, PK04 Diversity Set (AID 1180);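 further: RPMI8826 multiple myeloma cell line at 5000 cells per well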
# test_settings: higher = more signal
// keep it numeric: no unit symbol after the value

Worked set:
CC(C)(C)N1C(=O)[C@H]2[C@H]3[C@H](O)[C@H](O)CC(=NOC[C@@H](O)COCc4ccco4)[C@H]3CC[C@H]2C1=O
-0.583
CC(CCC(=O)OC[C@H]1O[C@H](C#Cc2ccccc2)C=C[C@@H]1Oc1ccc(C)cc1)=NOC(C)CN1CCCc2nc(C)c(C)cc21 (some centres undefined)
-0.0206
CC(C)CON=C1C[C@@H](O)[C@@H](O)[C@@H]2[C@@H]3C(=O)N(Cc4ccc5c(c4)OCO5)C(=O)[C@@H]3CC[C@@H]12
-0.0253

Attention now turns to another entry.
Field request: z-score | item: CC(C)C(=O)N[C@H]1CCCN1C(=O)C=Cc1ccccc1
-1.03

----------
# experiment_description: E. coli DRC41 culture turbidity changes, primary screen, E. coli filamentation inducer project, strain DRC41, OD650, 48 h (AID 1152);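 further: E. coli MC1000 strain DRC41 lacking acrAB efflux pump and sulA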
# test_settings: E. coli DRC41 (acrAB sulA), higher = more signal, called active from +8 up or from −8 down
Decision: z-score >= -0.2 yields T, all other cases yield F.

COC(=O)CC=C[C@@H](C)[C@@H](C=NOC(C)CN1CCCCc2nc(C)c(C)cc21)NS(=O)(=O)c1ccc(C)cc1 (stereo partly drawn)
T
COC(=O)[C@H](Cc1ccccc1)NC(=O)[C@@H](C)CO
F
COC(=O)[C@H](C)NC(=O)CCC1CC(OC(=O)NCc2ccc3c(c2)OCO3)CC2(CCCC(COC(=O)NCc3ccccc3)O2)O1 (stereo partly drawn)
T
CCOC(=O)[C@H](Cc1ccccc1)NC(=O)CCC1CC(OC(=O)NCc2cccc3ccccc23)CC2(CCCC(COC(=O)NCCc3ccc(Cl)cc3)O2)O1 (stereo partly drawn)
F

Can CCc1cc2c(nc1CC)CCN(CCC(C)=NO[C@@H]1O[C@H](COC(C)=O)[C@@H](OC(C)=O)[C@H](OC(C)=O)[C@H]1OC(C)=O)C2 be said to have z-score at or above -0.2?
F

Can CC(C)CON=C1C[C@@H](O)[C@@H](O)[C@@H]2[C@@H]3C(=O)N(Cc4ccccc4)C(=O)[C@@H]3CC[C@H]12 be said to have z-score at or above -0.2?
F

Can COc1ccc(OC[C@@H](CO)OC)cc1 be said to have z-score at or above -0.2?
T
